experiment: Physicochemical properties of acalabrutinib maleate monohydrate (Table 2); details: acidic
endpointLabel: pKa

Query: Answer with the recorded pKa of CC#CC(=O)N1CCC[C@H]1c1nc(-c2ccc(C(=O)Nc3ccccn3)cc2)c2c(N)nccn12 [acalabrutinib free base] only.
Response: 12.1

* * *

assay: Physicochemical properties of acalabrutinib maleate monohydrate (Table 2); settings: aqueous buffer; @ pH 8 Free Base; read-out: Intrinsic solubility
endpointLabel: solubility (µg/mL)
Numbers only, in µg/mL.

Query: Answer with the recorded solubility of CC#CC(=O)N1CCC[C@H]1c1nc(-c2ccc(C(=O)Nc3ccccn3)cc2)c2c(N)nccn12 [acalabrutinib free base] only.
Response: 48
